Tested on: NCI-H23 lung
run.description: NCI tumour cell line growth inhibition, 48 h
endpoint.label: TGI (µM)
Output spec: scalar in µM, unitless text.

Prompt: Consider the molecule CCc1cccc(C(C)CC)c1NC(=O)CC1C(=O)Nc2ccccc2S1(=O)=O (configuration not stated) and give its recorded TGI.
Completion: 40.1

Prompt: Consider the molecule COc1cc(C(=O)/C=C/c2c(-c3cccs3)nc3sccn23)cc(OC)c1OC and give its recorded TGI.
Completion: 6.42

Prompt: Consider the molecule Cc1ccc(-c2cc(=O)c3cc4c(cc3[nH]2)OCO4)cc1 and give its recorded TGI.
Completion: 3.29

Prompt: Consider the molecule O=C(c1ccc(Oc2ccccc2)cc1Cl)c1c[nH]c2ncnc(N[C@@H]3CC[C@@H](CO)OC3)c12 and give its recorded TGI.
Completion: 13.7

Prompt: Consider the molecule O=C1c2c(O)ccc(O)c2C(=O)c2c(NCCNC(=O)C(O)C(O)C(O)C(O)CO)ccc(NCCNC(=O)C(O)C(O)C(O)C(O)CO)c21 (configuration not stated) and give its recorded TGI.
Completion: 0.417

The measured values listed here are drawn from PubChem BioAssay (NCI).
